# target or test system: Botulinum neurotoxin type A (Clostridium botulinum) (UniProt P0DPI0)
# Sequence (P0DPI0 whole entry, looked up): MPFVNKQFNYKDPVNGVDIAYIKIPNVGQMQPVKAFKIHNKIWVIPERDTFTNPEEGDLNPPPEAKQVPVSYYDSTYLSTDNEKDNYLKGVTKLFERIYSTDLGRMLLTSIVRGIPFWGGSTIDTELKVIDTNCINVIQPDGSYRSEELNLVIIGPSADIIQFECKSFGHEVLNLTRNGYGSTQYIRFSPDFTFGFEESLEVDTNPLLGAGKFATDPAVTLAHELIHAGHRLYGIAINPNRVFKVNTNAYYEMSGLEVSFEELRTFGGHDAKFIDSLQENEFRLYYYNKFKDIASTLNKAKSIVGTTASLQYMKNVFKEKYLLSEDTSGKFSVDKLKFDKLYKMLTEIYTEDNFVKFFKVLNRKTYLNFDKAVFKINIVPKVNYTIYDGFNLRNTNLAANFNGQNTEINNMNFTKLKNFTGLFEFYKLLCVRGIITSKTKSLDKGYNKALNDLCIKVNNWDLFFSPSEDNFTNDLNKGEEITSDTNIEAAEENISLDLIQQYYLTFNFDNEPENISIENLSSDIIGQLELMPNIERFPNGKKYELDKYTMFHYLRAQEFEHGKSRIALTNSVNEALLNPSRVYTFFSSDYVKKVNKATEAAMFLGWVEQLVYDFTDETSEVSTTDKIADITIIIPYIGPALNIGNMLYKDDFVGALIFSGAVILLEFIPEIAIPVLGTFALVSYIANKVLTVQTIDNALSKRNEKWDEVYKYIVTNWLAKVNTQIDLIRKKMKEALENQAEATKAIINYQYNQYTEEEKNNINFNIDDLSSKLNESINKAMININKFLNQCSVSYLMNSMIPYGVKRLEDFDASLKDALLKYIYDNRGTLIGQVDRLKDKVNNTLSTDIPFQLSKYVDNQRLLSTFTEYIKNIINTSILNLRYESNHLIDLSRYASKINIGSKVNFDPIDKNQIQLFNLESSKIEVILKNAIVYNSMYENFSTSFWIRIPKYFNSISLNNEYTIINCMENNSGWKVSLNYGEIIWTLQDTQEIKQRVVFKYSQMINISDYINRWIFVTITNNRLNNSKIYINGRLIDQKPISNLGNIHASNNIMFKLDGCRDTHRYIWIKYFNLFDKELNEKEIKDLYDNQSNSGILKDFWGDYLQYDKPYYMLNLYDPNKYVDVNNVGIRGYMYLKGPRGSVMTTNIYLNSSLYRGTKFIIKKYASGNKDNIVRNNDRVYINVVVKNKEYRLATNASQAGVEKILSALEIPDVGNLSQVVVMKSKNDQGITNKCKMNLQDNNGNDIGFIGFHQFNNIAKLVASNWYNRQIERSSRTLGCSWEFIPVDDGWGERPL
# test details: BoNT/A light chain protease inhibitors, biochemical, multiplex microsphere flow cytometry, validation set (AID 588460)
# condition parameters: at 10 µM, stronger effect = higher value
Activity calls are given as the source filed them. The rule behind the calls is not given here.
measured parameter: inhibition

### Prompt Name the reported inhibition value associated with the compound COc1ccc2[nH]c(=O)c3c(c2c1)OC(C)(C)C=C3
### Response 0.3% (inactive)

### Prompt // inhibition lookup, key: CCc1cc(=O)oc2cc(OCc3nn[nH]n3)ccc12
### Response -1.3% (inactive)

### Prompt Given COc1cc2c(cc1OC)C1(CCCC1)CNC2c1cccc([N+](=O)[O-])c1 (stereo unspecified) , state its recorded inhibition.
### Response 0.1% (inactive)

### Prompt Any idea what its inhibition is? The compound is Cc1ccc(S(=O)(=O)N2CCC(C(=O)N[C@@H](C)C(=O)NC3CCS(=O)(=O)C3)CC2)cc1 (stereo partly specified)
### Response 1.5% (inactive)

### Prompt Which value of inhibition has been reported for Cc1ccc2c(CC(=O)O)coc2c1 in the records?
### Response -1.3% (inactive)

### Prompt Consider the compound Nc1nnc(-c2cccc(Cl)c2Cl)c(N)n1 and give its measured inhibition.
### Response 0.8% (inactive)

### Prompt Given COc1ccc(CNC(=O)C2CCCN2C)cc1OC (stereo unspecified) , state its recorded inhibition.
### Response -2.5% (inactive)

### Prompt Give the measured inhibition of COCc1cc(=O)[nH]c(Nc2nc3ccccc3o2)n1 .
### Response -0.7% (inactive)

### Prompt May I ask what inhibition has been recorded for CC(=O)NC(NC(=S)N1CCCCCC1)C(Cl)(Cl)Cl (stereo unspecified) ?
### Response -2.4% (inactive)

### Prompt Fill blank: measured inhibition of the compound CO[C@@]1(NC(=O)Cc2cccs2)C(=O)N2C(C(=O)O)=C(COC(N)=O)CS[C@@H]21 is ____.
### Response 1.4% (inactive)

### Prompt # input compound: N/C(=N\OC(=O)c1ccc(Br)o1)c1ccccn1 ; wanted: its inhibition
### Response -0.3% (inactive)
